Tested on: EVSA-T (human breast carcinoma)
Experiment: Anti-proliferative activity, Alamar Blue assay, EVSA-T
Format: cell-based
Settings: Homo sapiens, EVSA-T, 72 h, EVSA-T cells, 72 hours, Alamar Blue; read-out: EVSA-T prolif
Structures can show the parent of a compound that is named as a salt.
Measured Metric: EC50

compound="C[C@@H]1CN(CC(=O)N2CC(C)(C)c3ncc(Cc4ccc(F)cc4)cc32)[C@@H](CN2CCOC[C@H]2CF)CN1 [Example 19, dihydrochloride]" measured_value="0.65 nM"
compound="C[C@@H]1CN(CC(=O)N2CC(C)(C)c3ccc(Cc4ccc(F)cc4)cc32)[C@@H](CN2[C@H](C)COC[C@H]2C)CN1 [Example 49, dihydrochloride]" measured_value="1.1 nM"
compound="C[C@@H]1CN(CC(=O)N2CC(C)(C)c3ncc(Cc4ccc(F)cc4)cc32)[C@@H](CN2CCOCC2(C)C)CN1 [Example 5, dihydrochloride]" measured_value="0.3 nM"
compound="C[C@@H]1CN(CC(=O)N2CC(C)(C)c3ncc(Cc4ccc(F)cc4F)cc32)[C@@H](CN2CCOC[C@@]2(C)CO)CN1 [Example 58, dihydrochloride]" measured_value="0.7 nM"
compound="C[C@@H]1CN(CC(=O)N2CC(C)(C)c3ncc(Cc4ccc(F)cc4)cc32)[C@@H](CN2CCCNC(=O)C2)CN1 [Example 46, dihydrochloride]" measured_value="36 nM"
compound="C[C@@H]1CN(CC(=O)N2CC(C)(C)c3ncc(Cc4ccc(F)cc4F)cc32)[C@@H](CN2CCOC[C@]2(C)CO)CN1 [Example 57, dihydrochloride]" measured_value="2.6 nM"
compound="C[C@@H]1CN(CC(=O)N2CC(C)(C)c3ncc(Cc4ccc(F)cc4)cc32)[C@@H](CN2CCOC[C@]2(C)CO)CN1 [Example 50, dihydrochloride]" measured_value="1.3 nM"
compound="CO[C@@H]1CN(C[C@H]2CN[C@H](C)CN2CC(=O)N2CC(C)(C)c3ncc(Cc4ccc(F)cc4)cc32)C[C@@H]1F (mixture of isomers) [Example 41]" measured_value="6 nM"
compound="CCCC(F)(F)c1cc2c(cn1)C(C)(C)CN2C(=O)CN1C[C@@H](C)NC[C@@H]1CN1CCOC[C@@]1(C)CO (single isomer, unassigned) [Example 68, dihydrochloride]" measured_value="22 nM"
compound="C[C@@H]1CN(CC(=O)N2CC(C)(C)c3ncc(Cc4ccc(F)cc4)cc32)[C@@H](CN2CC3CCC(C2)O3)CN1 [Example 18, dihydrochloride]" measured_value="1.8 nM"

====

Tested on: EVSA-T (human breast carcinoma)
Assay: Anti-proliferative activity, Alamar Blue assay, EVSA-T
Assay type: cell-based
Conditions: Homo sapiens, EVSA-T, 72 h, EVSA-T cells, 72 hours, Alamar Blue; read-out: EVSA-T prolif
Counter-ions that a name gives are not always drawn.
Recorded EC50 values for a group of compounds are listed next.
Measured Metric: EC50 (nM)

compound="COC[C@@H]1COCCN1C[C@H]1CN[C@H](C)CN1CC(=O)N1CC(C)(C)c2ncc(Cc3ccc(F)cc3)cc21 [Example 1, dihydrochloride]" measured_metric=EC50 result_units=nM measured_value=2.9
compound="C[C@@H]1CN(CC(=O)N2CC(C)(C)c3ncc(Cc4ccc(F)cc4)cc32)[C@@H](CN2CCC(F)(F)C2)CN1 [Example 6, dihydrochloride]" measured_metric=EC50 result_units=nM measured_value=4.6
compound="C[C@@H]1CN(CC(=O)N2CC(C)(C)c3ncc(Cc4ccc(F)cc4)cc32)[C@@H](CN2CCn3cnnc3C2)CN1 [Example 71, dihydrochloride]" measured_metric=EC50 result_units=nM measured_value=98

====

Molecular target: BIR3 domain of human XIAP (Homo sapiens, UniProt P98170)
Construct: BIR3 domain of human XIAP (residues 252-350) fused to a His-tag; His-tag (cleaved yes); made in house; host or cells: Escherichia coli
Sequence (P98170 252-350): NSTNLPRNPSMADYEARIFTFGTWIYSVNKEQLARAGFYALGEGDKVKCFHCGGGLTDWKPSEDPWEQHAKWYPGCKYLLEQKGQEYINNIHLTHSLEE
Assay: XIAP in vitro competitive displacement binding assay (fluorescence polarization)
Details: plain number = IC50; average where more than one data point; read-out: Xiap IC50 or PI μM (IC50)
Where a name gives a salt, the structure may show the parent alone.
Reported IC50 values are given for each entry in this list.
Measured Metric: IC50 (µM)

compound="C[C@@H]1CN(CC(=O)N2CC(C)(C)c3ncc(Cc4ccc(F)cc4)cc32)[C@@H](CN2CC3CC2CO3)CN1 (stereo partly drawn) [Example 20, dihydrochloride]" measured_value=0.14
compound="C[C@@H]1CN(CC(=O)N2CC(C)(C)c3ncc(Cc4ccc(F)cc4)cc32)[C@@H](CN2CCOCC2C(F)(F)F)CN1 (single isomer, unassigned) [Example 25, hydrochloride]" measured_value=0.12
compound="C[C@@H]1CN(CC(=O)N2CC(C)(C)c3nnc(Cc4ccc(F)cc4F)cc32)[C@@H](CN2[C@H](C)COC[C@H]2C)CN1 [Example 88, dihydrochloride]" measured_value=0.22

====

Tested on: EVSA-T (human breast carcinoma)
Experiment: Anti-proliferative activity, Alamar Blue assay, EVSA-T
Type: cell-based
Conditions: Homo sapiens, EVSA-T, 72 h, EVSA-T cells, 72 hours, Alamar Blue; read-out: EVSA-T prolif
Structures can show the parent of a compound that is named as a salt.
Property: EC50; scope: individual compounds
Measured Metric: EC50 (nM)

compound="C[C@@H]1CN(CC(=O)N2CC(C)(C)c3nnc(Cc4ccc(F)cc4)cc32)[C@@H](CN2[C@H](C)COC[C@H]2C)CN1 [Example 87, dihydrochloride]" target_entity="EVSA-T (human breast carcinoma)" measured_value=0.66
compound=C[C@@H]1CN(CC(=O)N2CC(C)(C)c3ncc(Cc4ccc(F)cc4)cc32)[C@@H](CN2CCNC(=O)[C@H]2C)CN1 target_entity="EVSA-T (human breast carcinoma)" measured_value=1.9
compound="C[C@@H]1CN(CC(=O)N2CC(C)(C)c3ncc(Cc4ccc(F)cc4)cc32)[C@@H](CN2CCN(C)C(=O)[C@H]2C)CN1 [Example 34, dihydrochloride]" target_entity="EVSA-T (human breast carcinoma)" measured_value=0.85
compound="C[C@@H]1CN(CC(=O)N2CC(C)(C)c3cnc(Cc4ccc(F)cc4F)cc32)[C@@H](CN2CCOC[C@@]2(C)CO)CN1 (single isomer, unassigned) [Example 67, dihydrochloride]" target_entity="EVSA-T (human breast carcinoma)" measured_value=3.7
compound="C[C@@H]1CN(CC(=O)N2CC(C)(C)c3ncc(Cc4ccc(F)cc4)cc32)[C@@H](CN2C[C@H](CO)OC[C@H]2C)CN1 [Example 119, dihydrochloride]" target_entity="EVSA-T (human breast carcinoma)" measured_value=0.32
compound="C[C@@H]1CN(CC(=O)N2CC(C)(C)c3ncc(Cc4ccc(F)cc4)cc32)[C@@H](CN2CCC[C@H]2CO)CN1 [Example 12, dihydrochloride]" target_entity="EVSA-T (human breast carcinoma)" measured_value=1.6
compound="CC(=O)N1CCN(C[C@H]2CN[C@H](C)CN2CC(=O)N2CC(C)(C)c3ncc(Cc4ccc(F)cc4)cc32)C(C)C1 (mixture of isomers) [Example 33, dihydrochloride]" target_entity="EVSA-T (human breast carcinoma)" measured_value=0.46
compound="COC[C@@H]1COCCN1C[C@H]1CN[C@H](C)CN1CC(=O)N1CC(C)(C)c2cnc(Cc3ccc(F)cc3)cc21 [Example 96, dihydrochloride]" target_entity="EVSA-T (human breast carcinoma)" measured_value=1.7
compound="CCCC(O)c1cc2c(cn1)C(C)(C)CN2C(=O)CN1C[C@@H](C)NC[C@@H]1CN1[C@H](C)COC[C@H]1C (some centres unmarked) [Example 90, dihydrochloride]" target_entity="EVSA-T (human breast carcinoma)" measured_value=29
compound="COC[C@@]1(C)COCCN1C[C@H]1CN[C@H](C)CN1CC(=O)N1CC(C)(C)c2cnc(Cc3ccc(F)cc3F)cc21 [Example 98, dihydrochloride]" target_entity="EVSA-T (human breast carcinoma)" measured_value=7.3
compound="CCC(F)(F)c1cnc2c(c1)N(C(=O)CN1C[C@@H](C)NC[C@@H]1CN1[C@H](C)COC[C@H]1C)CC2(C)C [Example 43, dihydrochloride]" target_entity="EVSA-T (human breast carcinoma)" measured_value=8.3

====

# maps each entry to its pEC50
Test system: EVSA-T (human breast carcinoma)
Test: Anti-proliferative activity, Alamar Blue assay, EVSA-T
Assay type: cell-based
Details: Homo sapiens, EVSA-T, 72 h, EVSA-T cells, 72 hours, Alamar Blue; read-out: EVSA-T prolif
pEC50: −log10 of the molar value. Structures can show the parent of a compound that is named as a salt.
Measured Metric: pEC50

compound="C[C@@H]1CN(CC(=O)N2CC(C)(C)c3ncc(Cc4ccc(F)cc4)cc32)[C@@H](CN2CCOCC23CC3)CN1 [Example 10, dihydrochloride]" measured_value=9.38
compound="CCCC(O)c1cnc2c(c1)N(C(=O)CN1C[C@@H](C)NC[C@@H]1CN1[C@H](C)COC[C@H]1C)CC2(C)C (single isomer, unassigned) [Example 101, dihydrochloride]" measured_value=7.51
compound="CC1CC(=O)CCN1C[C@H]1CN[C@H](C)CN1CC(=O)N1CC(C)(C)c2ncc(Cc3ccc(F)cc3)cc21 (some centres unmarked) [Example 8, dihydrochloride]" measured_value=8.52
compound="C[C@@H]1CN(CC(=O)N2CC(C)(C)c3ncc(Cc4ccc(F)cc4)cc32)[C@@H](CN2CCOC[C@H]2CO)CN1 [Example 2, dihydrochloride]" measured_value=8.77
compound="C[C@@H]1CN(CC(=O)N2CC(C)(C)c3ncc(Cc4ccccc4)cc32)[C@@H](CN2[C@H](C)COC[C@H]2C)CN1 [Example 29, dihydrochloride]" measured_value=9.40
compound="COCC1(C)COCCN1C[C@H]1CN[C@H](C)CN1CC(=O)N1CC(C)(C)c2ncc(Cc3ccc(F)cc3)cc21 (single isomer, unassigned) [Example 99, dihydrochloride]" measured_value=8.82
compound="CC(=O)N1CCN(C[C@H]2CN[C@H](C)CN2CC(=O)N2CC(C)(C)c3ncc(Cc4ccc(F)cc4)cc32)[C@H](C)C1 [Example 52, dihydrochloride]" measured_value=9.00
compound="C[C@@H]1CN(CC(=O)N2CC(C)(C)c3ncc(Cc4ccc(F)cc4)cc32)[C@@H](CN2CCOC[C@@]2(C)CO)CN1 [Example 51, dihydrochloride]" measured_value=8.66
compound="C[C@@H]1CN(CC(=O)N2CC(C)(C)c3ncc(Cc4ccc(F)cc4)cc32)[C@@H](CN2CCN(c3ncccn3)C[C@H]2C)CN1 [Example 53, dihydrochloride]" measured_value=9.21
compound="C[C@@H]1CN(CC(=O)N2CC(C)(C)c3ncc(Cc4ccc(F)cc4)cc32)[C@@H](CN2CCC[C@@H](F)C2)CN1 [Example 14, dihydrochloride]" measured_value=8.34
compound="C[C@@H]1CN(CC(=O)N2CC(C)(C)c3ncc(Cc4ccc(F)cc4)cc32)[C@@H](CN2CCC(O)CC2)CN1 [Example 23, dihydrochloride]" measured_value=8.42
